The following compounds are shown together with reported log10 of IC50 values.
Target: Acetylcholinesterase (Electrophorus electricus, UniProt O42275)
Sequence (O42275 whole entry): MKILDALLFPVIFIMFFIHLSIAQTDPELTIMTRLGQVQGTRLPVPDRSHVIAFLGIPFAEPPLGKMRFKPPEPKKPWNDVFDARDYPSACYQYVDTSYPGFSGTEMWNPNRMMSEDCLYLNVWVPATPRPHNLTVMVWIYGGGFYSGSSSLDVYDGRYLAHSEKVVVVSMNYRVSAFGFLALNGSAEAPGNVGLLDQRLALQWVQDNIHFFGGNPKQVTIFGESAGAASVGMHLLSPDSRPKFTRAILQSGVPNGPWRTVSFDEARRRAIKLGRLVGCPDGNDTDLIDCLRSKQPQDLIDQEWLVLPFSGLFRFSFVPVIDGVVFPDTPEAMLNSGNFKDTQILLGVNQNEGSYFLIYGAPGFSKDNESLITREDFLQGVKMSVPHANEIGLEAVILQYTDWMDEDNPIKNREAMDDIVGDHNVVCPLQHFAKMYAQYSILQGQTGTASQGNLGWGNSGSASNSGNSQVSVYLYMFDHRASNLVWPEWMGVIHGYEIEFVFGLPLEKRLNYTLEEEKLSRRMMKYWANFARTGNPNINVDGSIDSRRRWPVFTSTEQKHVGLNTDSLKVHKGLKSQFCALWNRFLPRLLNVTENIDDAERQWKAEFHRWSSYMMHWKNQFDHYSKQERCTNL
measurement type: log10 of IC50 (log10 of the value in µM)

1. CC(C)Nc1nc2sc3c(c2c(=O)s1)CCN(Cc1ccccc1)C3 :: -0.24
2. CN(C)c1nc2sc3c(c2c(=O)o1)CCN(Cc1ccccc1)C3 :: -0.05
3. O=c1oc(N2CCN(Cc3ccccc3)CC2)nc2sc3c(c12)CCN(Cc1ccccc1)C3 :: 0.12
4. O=c1sc(Nc2ccccc2)nc2sc3c(c12)CCN(Cc1ccccc1)C3 :: 0.01
5. CC(C)CN1CCc2c(sc3nc(N(C)C)oc(=O)c23)C1 :: -0.44
6. O=C(Nc1nc2sc3c(c2c(=O)s1)CCN(Cc1ccccc1)C3)c1ccccc1 :: 0.72

----------
Molecular target: UniProt:O42275
Below, each entry is listed alongside its reported IC50.
measurement type: IC50 (nM)

1. CCN(CC)c1nc2sc3c(c2c(=O)o1)CCN(Cc1ccccc1)C3 :: 2080
2. O=C(Nc1nc2sc3c(c2c(=O)o1)CCN(Cc1ccccc1)C3)c1ccccc1 :: 2860
3. CC(C)Nc1nc2sc3c(c2c(=O)o1)CCN(Cc1ccccc1)C3 :: 740
4. CN1CCc2c(sc3nc(N(C)C)oc(=O)c23)C1 :: 38900
5. CCN1CCc2c(sc3nc(N(C)C)oc(=O)c23)C1 :: 10500
6. Nc1nc2sc3c(c2c(=O)s1)CCN(Cc1ccccc1)C3 :: 1200
7. O=c1sc(NC2CCCCC2)nc2sc3c(c12)CCN(Cc1ccccc1)C3 :: 2820

----------
Molecular target: Bile salt-activated lipase (Bos taurus)
Sequence (P30122 whole entry): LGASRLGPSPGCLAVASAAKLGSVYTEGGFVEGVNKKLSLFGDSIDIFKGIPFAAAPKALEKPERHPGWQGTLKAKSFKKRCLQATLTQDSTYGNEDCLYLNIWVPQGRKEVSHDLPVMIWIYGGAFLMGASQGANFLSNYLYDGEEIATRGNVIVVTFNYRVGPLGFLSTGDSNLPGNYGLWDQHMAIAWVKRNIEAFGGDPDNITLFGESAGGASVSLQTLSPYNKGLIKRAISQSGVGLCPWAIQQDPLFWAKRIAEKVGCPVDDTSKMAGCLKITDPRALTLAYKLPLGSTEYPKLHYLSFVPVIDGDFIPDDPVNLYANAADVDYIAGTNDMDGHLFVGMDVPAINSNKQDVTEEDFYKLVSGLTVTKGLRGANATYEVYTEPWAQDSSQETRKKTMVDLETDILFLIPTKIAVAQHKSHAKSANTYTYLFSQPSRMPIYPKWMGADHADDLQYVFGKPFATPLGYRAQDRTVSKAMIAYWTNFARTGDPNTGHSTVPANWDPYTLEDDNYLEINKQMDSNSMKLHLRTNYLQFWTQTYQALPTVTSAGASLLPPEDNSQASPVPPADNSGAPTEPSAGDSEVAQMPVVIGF
measurement type: Ki

1) Nc1nc2sc3c(c2c(=O)s1)CCN(Cc1ccccc1)C3 :: > 50 µM
2) CN(Cc1ccccc1)c1nc2sc3c(c2c(=O)o1)CCN(Cc1ccccc1)C3 :: > 50 µM
3) O=c1sc(Nc2ccccc2)nc2sc3c(c12)CCN(Cc1ccccc1)C3 :: > 50 µM
4) Nc1nc2sc3c(c2c(=O)o1)CCN(Cc1ccccc1)C3 :: > 50 µM
5) COc1ccc(CN(C)c2nc3sc4c(c3c(=O)o2)CCN(Cc2ccccc2)C4)cc1OC :: > 50 µM
6) O=C(Nc1nc2sc3c(c2c(=O)o1)CCN(Cc1ccccc1)C3)c1ccccc1 :: > 50 µM
7) CCN(CC)c1nc2scc(C)c2c(=O)o1 :: 15 µM
8) O=c1oc(Nc2ccccc2)nc2sc3c(c12)CCN(Cc1ccccc1)C3 :: > 50 µM
9) CC(C)Nc1nc2sc3c(c2c(=O)s1)CCN(Cc1ccccc1)C3 :: > 50 µM
10) CCN(CC)c1nc2sc3c(c2c(=O)o1)CCCC3 :: 1.86 µM
11) O=c1oc(N2CCOCC2)nc2sc3c(c12)CCCC3 :: 5.7 µM
12) CN(C)c1nc2sc3c(c2c(=O)o1)CCC3 :: 0.63 µM
13) CN(C)c1nc2sc3c(c2c(=O)o1)CCCC3 :: 2.15 µM
14) CC(C)Nc1nc2sc3c(c2c(=O)o1)CCCC3 :: > 50 µM
15) O=c1sc(NC2CCCCC2)nc2sc3c(c12)CCN(Cc1ccccc1)C3 :: > 50 µM
16) O=c1oc(NC2CCCCC2)nc2sc3c(c12)CCN(Cc1ccccc1)C3 :: > 50 µM
17) CC(C)Nc1nc2sc3c(c2c(=O)o1)CCN(Cc1ccccc1)C3 :: > 50 µM
18) CCN(CC)c1nc2sc3ccccc3c2c(=O)o1 :: 7.5 µM
19) CCN(CC)c1nc2sc3c(c2c(=O)o1)C(C)CCC3 (centres undefined) :: 1.64 µM
20) CCN(CC)c1nc2scc(C(C)C)c2c(=O)o1 :: 6.4 µM
21) O=c1oc(N2CCN(Cc3ccccc3)CC2)nc2sc3c(c12)CCN(Cc1ccccc1)C3 :: > 50 µM
22) CC(C)CN1CCc2c(sc3nc(N(C)C)oc(=O)c23)C1 :: > 50 µM
23) O=c1oc(N2CCOCC2)nc2sc3c(c12)CCN(Cc1ccccc1)C3 :: > 50 µM
24) CCN(CC)c1nc2sc3c(c2c(=O)o1)CCC3 :: 0.58 µM

----------
Quick record: pIC50, Acetylcholinesterase (Electrophorus electricus, UniProt O42275).
pIC50: −log10 of the molar value.
measurement type: pIC50

1. COc1ccc(CN(C)c2nc3sc4c(c3c(=O)o2)CCN(Cc2ccccc2)C4)cc1OC :: 6.48
2. O=c1oc(N2CCOCC2)nc2sc3c(c12)CCN(Cc1ccccc1)C3 :: 6.11
3. O=c1oc(Nc2ccccc2)nc2sc3c(c12)CCN(Cc1ccccc1)C3 :: 6.03
4. CN(C)c1nc2sc3c(c2c(=O)o1)CCN(C(=O)c1ccccc1)C3 :: 4.45
5. CN(Cc1ccccc1)c1nc2sc3c(c2c(=O)o1)CCN(Cc1ccccc1)C3 :: 6.08
6. Nc1nc2sc3c(c2c(=O)o1)CCN(Cc1ccccc1)C3 :: 5.23

----------
Biological target: Bile salt-activated lipase (Bos taurus, UniProt P30122)
Sequence (P30122 whole entry): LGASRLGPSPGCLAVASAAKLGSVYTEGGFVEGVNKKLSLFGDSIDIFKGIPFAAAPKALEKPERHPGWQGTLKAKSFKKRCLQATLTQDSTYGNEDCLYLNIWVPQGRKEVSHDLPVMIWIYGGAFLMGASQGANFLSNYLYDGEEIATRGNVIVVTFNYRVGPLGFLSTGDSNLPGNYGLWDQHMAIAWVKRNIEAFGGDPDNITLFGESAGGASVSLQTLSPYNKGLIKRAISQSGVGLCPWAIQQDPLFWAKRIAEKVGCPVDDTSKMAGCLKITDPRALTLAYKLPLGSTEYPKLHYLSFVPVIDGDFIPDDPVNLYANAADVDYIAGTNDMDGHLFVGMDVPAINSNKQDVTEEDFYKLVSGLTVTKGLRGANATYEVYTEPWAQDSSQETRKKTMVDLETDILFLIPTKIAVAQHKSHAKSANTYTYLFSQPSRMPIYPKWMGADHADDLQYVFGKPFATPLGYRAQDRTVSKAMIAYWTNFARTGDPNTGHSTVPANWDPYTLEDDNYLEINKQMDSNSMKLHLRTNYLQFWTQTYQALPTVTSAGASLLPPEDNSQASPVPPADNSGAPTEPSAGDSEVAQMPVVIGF
pKi: −log10 of the molar value.
pKi overview
measurement type: pKi

1. CCN(CC)c1nc2sc(C(N)=O)c(C)c2c(=O)o1 :: < 4.30
2. CN(C)c1nc2sc3c(c2c(=O)o1)CCSC3 :: 5.24
3. O=C(Nc1nc2sc3c(c2c(=O)s1)CCN(Cc1ccccc1)C3)c1ccccc1 :: < 4.30
4. CCN1CCc2c(sc3nc(N(C)C)oc(=O)c23)C1 :: < 4.30
5. CN(c1nc2sc3c(c2c(=O)o1)CCCC3)C1CCCCC1 :: 4.74
6. CN(C)c1nc2sc3c(c2c(=O)o1)CCN(Cc1ccccc1)C3 :: < 4.30

----------
Below are Ki values recorded for Bile salt-activated lipase (Bos taurus).
measurement type: Ki

1. CCN(CC)c1nc2sc(C)c(C)c2c(=O)o1 :: 4.3 µM
2. CN(C)c1nc2sc3c(c2c(=O)o1)CCOC3 :: > 50 µM
3. CN(C)c1nc2sc3c(c2c(=O)o1)CCN(C(=O)c1ccccc1)C3 :: > 50 µM
4. CCN(CC)c1nc2sc3c(c2c(=O)o1)CCCCC3 :: 6 µM
5. CN1CCc2c(sc3nc(N(C)C)oc(=O)c23)C1 :: > 50 µM
6. CCN(CC)c1nc2sc3c(c2c(=O)o1)CCN(Cc1ccccc1)C3 :: > 50 µM

Measured values drawn from ChEMBL document CHEMBL1140420 for this set.
